All figures here come from the supplement of paper PMC8728848.

- assayed.system: Gal6S(b1-3)GlcNAc6S
- assay: glycan array binding signal (z-score within array); higher = stronger binding
- condition.parameters: glycan notation: IUPAC condensed, linker removed
The entries come from a sample that favours the strongest signals as a whole.
Can you tell me glycan array binding signal (z-score) for the items I'm about to list?
Enter a number only.

Looking for the measured glycan array binding signal (z-score) of Mnn9-2N3 (Aspergillus fumigatus) (protein) MAVARRMRRTNPITLLLAAILAIGFFIFVLSPSTTSASPVKAGSASSSSTSQQRREDNAAENPLSPPTKPFFKSQPVRHDGQQAPPPVVQYNLNQLSSTSTSAANGERILILTPMARFVPEYWDNVVKLTYPHELISIGFIIPKNKEGNAALAALEAAIAKTQSGPIDKRFASISILRQDFEPPLQSQDEKERHKISNQKARRESMSRARNSLLFTTLGPATAWVLWLDADIVETPPTLIQDLTAHDHPVLVPNCYQRYYNSEKKKMDVRPYDYNSWIDSSTAQSMAAEMGPDEILLEGYAEMPTYRTLMAHLADTANPNPKKVIELDGVGGTALMVKAEVHRDGAMFPAFPFYHLVETEGFAKMAKRLGYSVYGLPDYFVSRNFFFFFFFFFFG , can you help?
2.52

Another binder to check: Epa3to1 (Candida glabrata) (protein) MGSSHHHHHHSSGLVPRGSHMKRELSSQNPFGYPIGCSPQDVAIIPGLTMELYSYPIVSGTPPNCYDASYVDPEYPRTGYLKRKMVGKSTGVTGNLNYKYSVEKACMVKYGNLPAGYNYNEPLTVSNFTMILYGYFKAQTTGLHTFFVNADDLLYINFGAGNAFDCCKREDSKTKLGEYVAYDIWHVDSSKNKVSLFLEKDLYYPIRMFFNNREYDSSLDLSFSVNGATDQISDFSGYLYSVPDQPDTCPAHIGYDTTCR
4.12
